Protocol: Kinetic solubility in aqueous buffer pH 7.4 by total chemiluminescent nitrogen determination (Analiza)
Measurement conditions: aqueous buffer, pH 7.4, aqueous buffer, kinetic from dmso stock
Mark class 1 for reported solubility kinetic of 100 µM or greater; mark class 0 for anything smaller.

Compound	Category
O=C1C=C(NCCc2cc(Br)c(O)c(Br)c2)C(=O)c2ncccc21	class 0
CC(C)CCN1c2nc(Nc3cc(F)c(O)c(F)c3)ncc2N(C)C(=O)C1C (centres unmarked)	class 0

Prompt: Exam item: decide whether the reported solubility kinetic for `O=C(NC1CCNCC1)c1n[nH]cc1NC(=O)c1c(Cl)cccc1Cl` is at least 100 µM.
Response: class 1

Prompt: Evaluate `CC(C)(C)c1cnc(CSc2cnc(NC(=O)C3CCNCC3)s2)o1` : solubility kinetic at minimum 100 µM?
Response: class 1

Prompt: Given the entry `c1ccc(-c2nn3c(c2-c2ccnc4cc(OCCN5CCOCC5)ccc24)CCC3)nc1` , answer whether its solubility kinetic meets or surpasses 100 µM.
Response: class 1

Prompt: Entry `CN(C)CCCOc1c(Br)cc(/C=C/C(=O)NCCCOc2c(Br)cc(CCN(C)C)cc2Br)cc1Br` : is its solubility kinetic no less than 100 µM?
Response: class 1

Prompt: Identify whether the reported solubility kinetic of the following compound is 100 µM or greater: `COc1cccc2c(NCc3ccccc3)nc(-n3c(N)nc4ccccc43)nc12`
Response: class 0

Prompt: Say whether `C[C@H](N/C(=N\c1cccc2ncccc12)NC#N)c1ccccc1` shows solubility kinetic of 100 µM or more.
Response: class 0

====

System: BV2 (mouse microglia) cell line
Protocol: pHrodo-myelin phagocytosis/cell viability high content imaging assay: viability (cell count, nuclear area, nuclear intensity)
Measurement conditions: BV2; compound 10 uM; 48 hours treatment
Metric: 1. Cell count (% control)
Reply numerically in % control, unit not repeated.

Compound	Metric	Unit abbrev	Number
CC/C(=C(\c1ccccc1)c1ccc(OCCN(C)C)cc1)c1ccccc1 [UNC10101258B]	1. Cell count (% control)	% control	72.9
COc1cc(N2CCC(N3CCN(C)CC3)CC2)ccc1Nc1ncc(Cl)c(Nc2ccccc2P(C)(C)=O)n1 [UNC10244797A]	1. Cell count (% control)	% control	44.4

Prompt: Quick check: 1. Cell count (% control) of Cc1cc(OCc2nnc(SC3CCCC3)n2-c2cccnc2)ccc1-c1ccc(S(C)(=O)=O)cc1 [UNC10302838A] ?
Response: 15.0

Prompt: State the recorded 1. Cell count (% control) for this entry: Clc1ccccc1C(c1ccccc1)(c1ccccc1)n1ccnc1 [UNC10100375A]
Response: 67.3

====

Tested on: BV2 (mouse microglia) cell line
Protocol: pHrodo-myelin phagocytosis/cell viability high content imaging assay: viability (cell count, nuclear area, nuclear intensity)
Measurement conditions: BV2 cells, 10 uM compound, 48 hours treatment
2. Nuclear Area (% Control) listing for selected molecules.
// units = % Control; emit number, no label

Molecule	Number
Cc1c(COc2cc(OCc3cccc(C#N)c3)c(CN3C[C@H](O)C[C@@H]3C(=O)O)cc2Cl)cccc1-c1ccc2c(c1)OCCO2 [UNC10302972A]	106.7
CN(C)CCCn1c(N)c(-c2nc3ccccc3[nH]2)c2nc3ccccc3nc21 [UNC10302891A]	105.7

Prompt: Data request, read-out 2. Nuclear Area (% Control), for Cc1cnc(Nc2ccc(F)cc2Cl)nc1-c1c[nH]c(C(=O)N[C@H](CO)c2cccc(Cl)c2)c1 [UNC10302866A]
Response: 101.5

Prompt: May I ask what 2. Nuclear Area (% Control) has been recorded for CS[C@@]1(C(=O)Nc2ccc3[nH]nc(-c4ccc(OC(C)C)nc4)c3c2)CCN(CC(=O)N2CC=C(c3ccc(-c4ncn(C)n4)cc3)CC2)C1 [UNC10302902A] ?
Response: 110.5

Prompt: Give its 2. Nuclear Area (% Control) value. Item: COc1cc(Nc2ncc(F)c(Nc3ccc4c(n3)N(COP(=O)([O-])[O-])C(=O)C(C)(C)O4)n2)cc(OC)c1OC.[Na+].[Na+] [UNC10302863A]
Response: 113.6

Prompt: Look up 2. Nuclear Area (% Control): Nc1nc(Nc2ccc3c(c2)CC[C@@H](N2CCCC2)CC3)nn1-c1cc2c(nn1)-c1ccccc1CCC2 [UNC10220544A]
Response: 94.5

Prompt: Name the reported 2. Nuclear Area (% Control) value associated with the molecule CC(Nc1nc(N2CCCC2)nc2ccccc12)c1ccccc1 (stereo not shown) [UNC10302900A]
Response: 106.6

Prompt: Which 2. Nuclear Area (% Control) value is on record for O=C(Nc1ccc([N+](=O)[O-])cc1Cl)c1cc(Cl)ccc1O [UNC10302856A] ?
Response: 104.4

Prompt: Given the molecule O=c1oc2ccccc2cc1-c1cn2cc(Cc3ccc(F)cc3)sc2n1 [UNC10302680A] , what is its reported 2. Nuclear Area (% Control)?
Response: 99.6

Prompt: Consider the molecule shown here: Br.CCCc1cc(-c2nc(-c3ccc(C)cc3)cs2)ccn1 [UNC10302889A] What is its recorded 2. Nuclear Area (% Control)?
Response: 97.6

Prompt: Which 2. Nuclear Area (% Control) value belongs to COc1nc(OCc2cccc(-c3ccccc3)c2C)ccc1CNCCNC(C)=O.Cl [UNC10302832A] ?
Response: 92.8

Prompt: Item CNC(=O)c1c(F)cccc1Nc1nc(Nc2cc3c(cc2OC)CCN3C(=O)CN(C)C)nc2[nH]ccc12 [UNC10302864A] has what recorded 2. Nuclear Area (% Control)?
Response: 109.6

Prompt: Look up 2. Nuclear Area (% Control): COS(=O)(=O)[O-].C[n+]1c2ccccc2nc2ccccc21 [UNC10302857A]
Response: 123.3

Prompt: Entry CCN(CC)c1ccc(/C=N/NC(=O)c2ccc(O)cc2)cc1 [UNC10302868A] has what 2. Nuclear Area (% Control)?
Response: 105.9

Prompt: Quick one: 2. Nuclear Area (% Control) for CNc1nc(C)nc(N[C@H]2CCC[C@@H](C(=O)NCc3ccc(C#N)cc3C(F)(F)F)C2)n1 [UNC10302679A] ?
Response: 106.3

Prompt: Param item = COc1ccc2nc([S+]([O-])Cc3ncc(C)c(OC)c3C)nc-2[nH]1 (stereo not shown) [UNC10303106A] ; retrieve measured 2. Nuclear Area (% Control).
Response: 104.8

Prompt: Would you kindly share the measured 2. Nuclear Area (% Control) for C=CC(=O)Nc1cc2c(Nc3ccc(F)c(Cl)c3)ncnc2cc1OCCCN1CCOCC1.Cl.Cl [UNC10126563B] ?
Response: 92.7

Prompt: Using the record for CCCCCOc1cc2c(cc1-c1cc(/C=C/C(=O)O)ccc1O)C(C)(C)CCC2(C)C [UNC10302971A] , report its 2. Nuclear Area (% Control).
Response: 103.5

Prompt: For COc1cc([C@@H]2c3cc4c(cc3[C@H](O)[C@H]3COC(=O)[C@H]23)OCO4)cc(OC)c1OC [UNC10100984A] , what is its reported 2. Nuclear Area (% Control)?
Response: 112.2

====

Tested on: BV2 (mouse microglia) cell line
Protocol: pHrodo-myelin phagocytosis/cell viability high content imaging assay: viability (cell count, nuclear area, nuclear intensity)
Measurement conditions: BV2 cells, 10 uM compound, 48 hours treatment
Metric: 2. Nuclear Area (% Control)
Quick note: give the figure in % Control, leave out the unit.

Compound	Number
CN(C)CCCN1c2ccccc2Sc2ccc(Cl)cc21.Cl [UNC10100309D]	103.4
Cc1cc(SCc2sc(-c3ccc(C(F)(F)F)c(F)c3)nc2C)ccc1OCC(=O)O [UNC10302862A]	105.0
CNC(=O)CN1CCC(Oc2cc3c(Nc4cccc(Cl)c4F)ncnc3cc2OC)CC1 [UNC10302865A]	110.1

Prompt: // 2. Nuclear Area (% Control) lookup, key: CN(C)CC1CCOC1(c1ccccc1)c1ccccc1.Cl (stereo not shown) [UNC10303096A]
Response: 105.3

====

Protocol: Kinetic solubility in aqueous buffer pH 7.4 by total chemiluminescent nitrogen determination (Analiza)
Measurement conditions: aqueous buffer, pH 7.4, aqueous buffer, kinetic from dmso stock
Note to self: values exactly at 200 µM are T. So solubility kinetic at or above 200 µM is T, below is F.

Solved cases below.
Compound	Category
O=C(O)c1cc2nc(-c3ccc(Cl)cc3)cc(C(F)(F)F)n2n1 [ZINC00184372]	T
CC(=O)NCC(=O)N1[C@@H]2CC[C@H]1c1ccc(Nc3ncc(C(F)(F)F)c(NC4CCC4)n3)cc12 [PF-03814735 (MolPort-023-219-160)]	F
CCc1ccc(S(=O)(=O)c2ccccc2)cc1S(=O)(=O)NCCCN(C)C [sFRP-1 Inhibitor]	F
Cc1cc(NC(=O)Nc2ccccc2)n(-c2ccccc2)n1 [CHEMBL86962 (VU0032230)]	F

Prompt: Given CCCC[C@@H](C=O)NC(=O)[C@H](CC(C)C)NC(=O)OCc1ccccc1 [Calpeptin] , state whether its solubility kinetic is at least 200 µM.
Response: F

Prompt: # bool: solubility kinetic of C[C@H]1Oc2cc(cnc2N)-c2c(nn(C)c2C#N)CN(C)C(=O)c2ccc(F)cc21 [Lorlatinib] >= 200 µM
Response: F

Recorded values, source paper PMC9019904.
